# assay-system: histamine H2 receptor (Rattus norvegicus, UniProt P25102)
# Construct: endogenous in cells
# Sequence (P25102 whole entry): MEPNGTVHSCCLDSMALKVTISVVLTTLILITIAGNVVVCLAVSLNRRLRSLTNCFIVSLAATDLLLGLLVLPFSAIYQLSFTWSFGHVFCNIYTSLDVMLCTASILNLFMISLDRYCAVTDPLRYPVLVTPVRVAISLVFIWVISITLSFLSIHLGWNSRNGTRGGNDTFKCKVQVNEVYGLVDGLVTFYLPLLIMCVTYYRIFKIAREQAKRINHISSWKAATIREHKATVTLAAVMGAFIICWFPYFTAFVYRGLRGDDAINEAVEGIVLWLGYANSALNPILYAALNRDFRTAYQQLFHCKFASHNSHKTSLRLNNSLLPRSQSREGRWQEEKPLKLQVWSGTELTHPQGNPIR
# protocol-text: Competition binding assay (displacement of ^3H-tiotidine)
# test-conditions: deuterated (D); read-out: reported measured value (ligand binding constant)
reported-property: IC50 (nM)
Just the number in nM, nothing appended.

Exercise: Which IC50 value is on record for NCCc1c[nH]cn1 ?
Solution: 16

---

# assay-system: histamine H2 receptor (Rattus norvegicus, UniProt P25102)
# Construct: endogenous in cells
# protocol-text: ^3H-tiotidine saturation binding assay
# test-conditions: cultured neonatal rat astrocytes, regular phosphate buffer (control); read-out: equilibrium dissociation constant (KD)
reported-property: Kd
Quick note: number first, unit second.

Exercise: Which Kd value is on record for CN=C(NC#N)NCCSCc1csc(N=C(N)N)n1 ?
Solution: 4.7 nM

---

# assay-system: histamine H2 receptor (Rattus norvegicus, UniProt P25102)
# Construct: endogenous in cells
# protocol-text: Competition binding assay (displacement of ^3H-tiotidine)
# test-conditions: control (H); read-out: reported measured value (ligand binding constant)
reported-property: pIC50
Scale for pIC50: -log10 of concentration given in mol/L; no unit attached.

Exercise: Which pIC50 value is on record for NCCc1c[nH]cn1 [histamine] ?
Solution: 7.25
